These data points were gathered from patent US12595230B2.

Subject of test: ERα (Homo sapiens)
Construct: host or cells: MCF7
Sequence (P03372 1-595): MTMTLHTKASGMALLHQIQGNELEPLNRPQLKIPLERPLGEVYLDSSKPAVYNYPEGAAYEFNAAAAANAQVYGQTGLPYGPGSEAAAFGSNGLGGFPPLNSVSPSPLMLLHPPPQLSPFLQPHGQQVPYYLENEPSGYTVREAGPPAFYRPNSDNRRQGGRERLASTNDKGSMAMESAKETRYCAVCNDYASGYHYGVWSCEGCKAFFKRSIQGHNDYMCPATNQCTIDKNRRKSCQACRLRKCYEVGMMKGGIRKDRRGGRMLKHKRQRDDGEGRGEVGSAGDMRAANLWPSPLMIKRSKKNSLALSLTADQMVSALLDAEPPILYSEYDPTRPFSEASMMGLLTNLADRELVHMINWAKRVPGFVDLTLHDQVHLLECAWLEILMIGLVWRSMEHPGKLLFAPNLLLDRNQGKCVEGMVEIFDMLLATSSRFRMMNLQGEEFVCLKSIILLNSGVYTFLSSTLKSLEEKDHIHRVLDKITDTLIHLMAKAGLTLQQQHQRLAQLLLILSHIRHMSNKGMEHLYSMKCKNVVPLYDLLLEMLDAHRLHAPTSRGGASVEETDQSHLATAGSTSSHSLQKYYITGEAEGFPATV
Procedure text: Estrogen receptor degradation activity: breast cancer cell ERα in cell western assay (MCF7 cells)
Format: cell-based
Conditions: 4 hours post compound addition, concentration which degrades 50% of the estrogen receptor, read-out: Degradation IC50
Quick reference: DC50 of the listed items.
Don't forget the unit after the value.

Examples with answers:
{"Compound": "O=C(O)c1c(F)cc2c(c1F)CCCC(c1ccc(F)cc1Cl)=C2c1ccc(CC2CN(CCCF)C2)cc1", "DC50": "13.2 nM"}
{"Compound": "O=C([O-])c1ccc2c(c1)CCCC(c1cc(C(F)F)ccc1F)=C2c1ccc(CC2CN(CCCF)C2)cc1.[Na+]", "DC50": "0.6 nM"}
{"Compound": "O=C(O)c1ccc2c(c1)CCCC(c1ccc(Cl)cc1Cl)=C2c1ccc(CC2CN(CCC(F)(F)F)C2)cc1", "DC50": "0.8 nM"}
{"Compound": "Cl.O=C(O)c1ccc2c(c1)CCCC(C1=CCC(F)(F)CC1)=C2c1ccc(CC2CN(CCCF)C2)cc1", "DC50": "0.5 nM"}
{"Compound": "Cc1ccc(C2=C(c3ccc(CC4CN(CCCF)C4)cc3)c3cc(F)c(O)c(F)c3CCC2)c(Cl)c1", "DC50": "0.4 nM"}

Req: // lookup DC50 | system=ERα (Homo sapiens) | key= O=C(O)c1ccc2c(c1)CCCC(c1cccc(F)c1F)=C2c1ccc(CC2CN(CCCF)C2)cc1
Resp: 0.3 nM

Req: API: value(readout=DC50, system=ERα (Homo sapiens)) for record Cl.O=C(O)c1ccc2c(c1)CCCC(c1c(F)cc(F)cc1C(F)F)=C2c1ccc(CC2CN(CCCF)C2)cc1 [Example 284, hydrochloride]
Resp: 0.3 nM

Req: Short answer please: DC50, ERα (Homo sapiens), entry Cl.O=C(O)c1ccc2c(c1)CCCC(c1ccc(Cl)cc1Cl)=C2c1ccc(C2(C3CN(CCCF)C3)CC2)cc1 [Example 215, hydrochloride]
Resp: 0.3 nM

Req: Which measured DC50 belongs to O=C(O)c1ccc2c(c1)CCCC(C1=CC3(C1)CC(F)(F)C3)=C2c1ccc(CC2CN(CCCF)C2)cc1 , tested on ERα (Homo sapiens)?
Resp: 10.5 nM

Req: Lab note: need DC50 with ERα (Homo sapiens) for entry O=C(O)c1ccc2c(c1Cl)CCCC(c1ccc(Cl)cc1Cl)=C2c1ccc(CC2CN(CCCF)C2)cc1 , please look it up.
Resp: 1.8 nM

Req: Hello, I am looking for reported DC50 with ERα (Homo sapiens) for Cc1cc(C2=C(c3ccc(Cl)cc3Cl)CCCc3cc(C(=O)O)ccc32)ccc1CC1CN(CCCF)C1.Cl . Could you help?
Resp: 0.5 nM

Req: So what DC50 did O=C(O)c1ccc2c(c1)CCCC(c1cccc(F)c1C(F)F)=C2c1ccc(CC2CN(CCCF)C2)cc1 get with ERα (Homo sapiens)?
Resp: 0.7 nM

Req: Entry O=C(O)c1ccc2c(c1)CCCC(c1cccc3c1CC3)=C2c1ccc(CC2CN(CCCF)C2)cc1 , system ERα (Homo sapiens): what DC50 was measured?
Resp: 0.4 nM

Req: Kindly state the measured DC50 obtained for Cl.O=C(O)c1ccc2c(c1)SCCC(c1ccc(Cl)cc1Cl)=C2c1ccc(CC2CN(CCCF)C2)cc1 with ERα (Homo sapiens).
Resp: 255 nM

---

Subject of test: ERα (Homo sapiens)
Construct: host or cells: MCF7
Sequence (P03372 1-595): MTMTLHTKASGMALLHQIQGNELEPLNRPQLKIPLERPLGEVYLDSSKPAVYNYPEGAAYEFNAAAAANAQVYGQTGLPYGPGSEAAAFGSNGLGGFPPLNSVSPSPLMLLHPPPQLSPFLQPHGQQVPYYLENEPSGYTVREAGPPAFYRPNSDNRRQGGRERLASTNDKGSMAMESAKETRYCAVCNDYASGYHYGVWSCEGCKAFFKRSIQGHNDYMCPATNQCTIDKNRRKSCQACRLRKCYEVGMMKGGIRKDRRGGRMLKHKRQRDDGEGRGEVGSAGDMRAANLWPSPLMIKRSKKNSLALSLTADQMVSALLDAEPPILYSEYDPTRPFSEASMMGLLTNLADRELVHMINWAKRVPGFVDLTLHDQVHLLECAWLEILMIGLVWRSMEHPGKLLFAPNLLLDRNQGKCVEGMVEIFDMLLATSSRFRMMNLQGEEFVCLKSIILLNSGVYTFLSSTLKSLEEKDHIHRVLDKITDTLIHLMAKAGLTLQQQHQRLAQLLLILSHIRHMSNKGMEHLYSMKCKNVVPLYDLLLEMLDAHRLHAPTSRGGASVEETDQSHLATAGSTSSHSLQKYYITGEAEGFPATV
Procedure text: Estrogen receptor degradation activity: breast cancer cell ERα in cell western assay (MCF7 cells)
Assay type: cell-based
Conditions: 4 hours post compound addition, concentration which degrades 50% of the estrogen receptor, read-out: Degradation IC50
Listed here are molecules together with their documented log10(DC50).
Quick note: numbers are log10 of DC50, with pM as the unit.

{"Molecule": "O=C(O)c1ccc2c(c1)CCCC(c1cnccc1C(F)(F)F)=C2c1ccc(CC2CN(CCCF)C2)cc1 [Example 214]", "Value type": "log10(DC50)", "Quantitative result": 3.45}
{"Molecule": "O=C(O)c1ccc2c(c1)CCCC(c1cccc(C(F)(F)F)c1Cl)=C2c1ccc(CC2CN(CCC(F)F)C2)cc1 [Example 286]", "Value type": "log10(DC50)", "Quantitative result": 2.48}
{"Molecule": "Cc1ccc(C2=C(c3ccc(CC4CN(CCCF)C4)cc3)c3ccc(C(=O)O)cc3CCC2)c(C)c1.Cl [Example 10]", "Value type": "log10(DC50)", "Quantitative result": 2.48}
{"Molecule": "NC(c1ccc(C2=C(c3ccc(Cl)cc3Cl)CCCc3cc(C(=O)O)ccc32)cc1)C1CN(CCCF)C1 (single isomer, unassigned; isomer 2) [Example 244]", "Value type": "log10(DC50)", "Quantitative result": 4.13}
{"Molecule": "COc1cc(C2=C(c3ccc(CC4CN(CCCF)C4)cc3)c3ccc(C(=O)[O-])cc3CCC2)cc(C(F)(F)F)n1.[Na+] [Example 274]", "Value type": "log10(DC50)", "Quantitative result": 3.81}

Req: Requested read-out log10(DC50), target or system ERα (Homo sapiens), entry Cl.O=C(O)c1ccc2c(c1)CCCC(c1cccc3c1CCC3(F)F)=C2c1ccc(CC2CN(CCCF)C2)cc1 [Example 54, hydrochloride]
Resp: 2.78

Req: For the record O=C(O)c1ccc2c(c1)CCCC(c1cc(CC(F)(F)F)ccc1F)=C2c1ccc(CC2CN(CCCF)C2)cc1 [Example 295] , what value of log10(DC50) is listed for ERα (Homo sapiens)?
Resp: 2.85

---

Subject of test: ERα (Homo sapiens)
Construct: host or cells: MCF7
Sequence (P03372 1-595): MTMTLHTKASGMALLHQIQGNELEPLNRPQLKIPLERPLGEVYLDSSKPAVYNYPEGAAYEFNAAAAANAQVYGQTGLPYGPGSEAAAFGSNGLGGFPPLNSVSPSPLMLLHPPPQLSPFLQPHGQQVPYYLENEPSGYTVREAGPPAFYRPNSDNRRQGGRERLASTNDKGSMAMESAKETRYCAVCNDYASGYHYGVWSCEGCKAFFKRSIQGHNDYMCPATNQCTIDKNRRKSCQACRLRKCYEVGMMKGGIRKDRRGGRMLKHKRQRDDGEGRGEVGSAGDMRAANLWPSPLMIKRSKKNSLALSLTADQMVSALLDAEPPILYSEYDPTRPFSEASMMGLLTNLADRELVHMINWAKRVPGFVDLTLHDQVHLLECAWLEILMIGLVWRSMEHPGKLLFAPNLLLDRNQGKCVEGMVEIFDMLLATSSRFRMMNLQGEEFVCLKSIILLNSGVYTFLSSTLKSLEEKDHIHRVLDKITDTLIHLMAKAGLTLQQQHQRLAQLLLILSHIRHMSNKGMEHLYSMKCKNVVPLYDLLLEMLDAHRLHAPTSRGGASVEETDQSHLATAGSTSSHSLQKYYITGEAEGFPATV
Procedure text: Estrogen receptor degradation activity: breast cancer cell ERα in cell western assay (MCF7 cells)
Format: cell-based
Conditions: 0.3 μM, 4 hours, relative to fulvestrant 0.1 μM positive control
Value type: % Degradation At 0.3 μM (%)
Value expressed in %; do not type the unit.

{"Compound": "Cc1c(F)ccc(C2=C(c3ccc(CC4CN(CCC(F)F)C4)cc3)c3ccc(C(=O)O)cc3CCC2)c1C", "Unit of measure": "%", "Quantitative result": 89}

Req: Given the compound Cc1cccc(C2=C(c3ccc(CC4CN(CCC(F)F)C4)cc3)c3ccc(C(=O)O)cc3CCC2)c1Cl , what is its reported % Degradation At 0.3 μM?
Resp: 82

Req: Item under review: O=C(O)c1ccc2c(c1)CCCC(Cc1ccccc1)=C2c1ccc(CC2CN(CCCF)C2)cc1 . Reported % Degradation At 0.3 μM?
Resp: 73

Req: Returns the measured % Degradation At 0.3 μM for the input compound. Input: O=C(O)c1ccc2c(c1)CCCC(c1ccccc1Cl)=C2c1ccc(CC2CN(CCCF)C2)cc1
Resp: 89

Req: Using the record for O=C(O)c1ccc2c(c1)CCCC(c1c(Cl)cccc1C(F)(F)F)=C2c1ccc(CC2CN(CCCF)C2)cc1 , report its % Degradation At 0.3 μM.
Resp: 79

Req: For Cc1c(F)ccc(C2=C(c3ccc(CC4CN(CCCF)C4)cc3)c3ccc(C(=O)O)cc3CCC2C)c1C (racemic) , what is its reported % Degradation At 0.3 μM?
Resp: 88
